meta.source: PubChem BioAssay AID328

System: BDF1 mice, P388 leukemia ip, median survival T/C
EXPERIMENT SUMMARY: NCI In Vivo Anticancer Drug Screen. Data for tumor model P388 Leukemia (intraperitoneal) in B6D2F1 (BDF1) mice
EXPERIMENTAL CONTEXT: endpoint: median survival time; dose: 6.25 mg/kg/injection; schedule: Q01DX009 (ip); vehicle: Klucel (hydroxypropylcellulose) (HPC); higher = longer survival
Toxic doses and inconclusive results are not listed.
METRIC NAME: T/C

# T/C (compound: Nc1ccc(S(=O)(=O)c2cc(O)c3ccccc3c2O)cc1 ) is 118 % of control

* * *

System: BDF1 mice, P388 leukemia ip, median survival T/C
EXPERIMENT SUMMARY: NCI In Vivo Anticancer Drug Screen. Data for tumor model P388 Leukemia (intraperitoneal) in B6D2F1 (BDF1) mice
EXPERIMENTAL CONTEXT: endpoint: median survival time; dose: 50.0 mg/kg/injection; schedule: Q01DX009 (ip); vehicle: saline with Tween-80; higher = longer survival
Toxic doses and inconclusive results are not listed.
METRIC NAME: T/C

Worked cases, T/C given:
Nc1cccc(NC=O)c1 :: 95 % of control
O=C(Oc1ccc([N+](=O)[O-])cc1)c1ccc(C[n+]2ccccc2)cc1 :: 91 % of control
CCN(CC)CC(COC)Oc1cc(C)ccc1C(C)C (stereo not drawn) :: 100 % of control
COc1cc(O)c2c(c1)C(=O)c1cc3c(c(O)c1C2=O)C(OC1OC(C)C(OC)C(O)C1OC)C(OC)C(C)(O)C3=O (stereo not drawn) :: 97 % of control
CCCCCCOC(CN(C)C)C(Cl)(Cl)Cl (stereo not drawn) :: 124 % of control

# T/C (molecule: CN1CCN(C)P1c1ccccc1 ) is 109 % of control

# T/C (molecule: CCOC(=O)N/N=C\c1cc(OC)c(OC)c(OC)c1 ) is 90 % of control

# T/C (molecule: O=C(O)/C=C/c1ccc(Cl)cc1Cl ) is 95 % of control

# T/C (molecule: CC(NSc1ccccc1[N+](=O)[O-])C(=O)O (stereo not drawn) ) is 98 % of control

# T/C (molecule: O=C(O)c1cc(C(=O)O)cc([N+](=O)[O-])c1 ) is 100 % of control

# T/C (molecule: COc1ccc(Br)cc1/C=C/[N+](=O)[O-] ) is 87 % of control

# T/C (molecule: CC(=O)Oc1cc2c(cc1OC(C)=O)C(=O)CCC=C2 ) is 104 % of control

# T/C (molecule: CCSC1(SCC)C(=O)OC2=C(CCCCC2)C1N(C)c1ccccc1 (stereo not drawn) ) is 87 % of control
